Catalogue of activity at 10 µM values
- SUBJECT_OF_TEST: CYP2C19 (Homo sapiens, UniProt P33261)
- Sequence (P33261 whole entry): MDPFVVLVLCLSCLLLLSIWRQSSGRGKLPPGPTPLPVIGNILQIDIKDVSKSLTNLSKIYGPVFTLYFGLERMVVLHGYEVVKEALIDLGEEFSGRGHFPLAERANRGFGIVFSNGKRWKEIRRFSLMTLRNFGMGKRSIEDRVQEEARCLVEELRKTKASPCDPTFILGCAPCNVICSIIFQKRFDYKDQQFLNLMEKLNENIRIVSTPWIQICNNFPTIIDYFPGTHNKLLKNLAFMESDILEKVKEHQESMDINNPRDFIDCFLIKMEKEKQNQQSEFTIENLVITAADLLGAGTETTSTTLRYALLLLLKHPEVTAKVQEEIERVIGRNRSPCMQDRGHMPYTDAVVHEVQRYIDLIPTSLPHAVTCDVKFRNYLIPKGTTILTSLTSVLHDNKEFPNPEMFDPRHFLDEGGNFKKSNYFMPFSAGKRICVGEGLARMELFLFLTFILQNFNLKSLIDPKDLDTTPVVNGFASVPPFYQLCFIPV
- PROTOCOL: Inhibition of CYP2C19 (unknown origin) assessed as enzyme activity at 10 uM relative to control
- Assay type: ADME
- Set-up: scale not given: the % may be the effect or the level left
- CONDITIONS: read-out: Activity
Response body: numeric value in %, unit text excluded.

Known activity at 10 µM results, listed for orientation:
# MOLECULE, RESULT_TYPE, UNIT_LABEL, NUMERIC_READOUT
measured = [
    ("COc1cccc(S(=O)(=O)/C=C/c2ncccc2Cl)n1", "activity at 10 µM", "%", 12.5),
    ("COc1ccc(S(=O)(=O)/C=C/c2ncccc2C(F)(F)F)nc1", "activity at 10 µM", "%", 21.7),
    ("COc1ncccc1S(=O)(=O)/C=C/c1ncccc1C(F)(F)F", "activity at 10 µM", "%", 17.6),
    ("COc1ccc(S(=O)(=O)/C=C/c2ccccc2C(F)(F)F)nc1", "activity at 10 µM", "%", 3.7),
    ("COc1ccncc1S(=O)(=O)/C=C/c1ncccc1Cl", "activity at 10 µM", "%", 42.9),
    ("COc1ccnc(S(=O)(=O)/C=C/c2ncccc2C(F)(F)F)c1", "activity at 10 µM", "%", 29.8),
    ("COc1ccnc(S(=O)(=O)/C=C/c2cccnc2Cl)c1", "activity at 10 µM", "%", 30.2),
    ("COc1ccnc([S+]([O-])/C=C/c2ccccc2C(F)(F)F)c1 (centres undefined)", "activity at 10 µM", "%", 6.4),
]

stdin: Hi! What's the reported activity at 10 µM for COc1ccc(S(=O)(=O)/C=C/c2ncccc2Cl)nc1 on CYP2C19 (Homo sapiens, UniProt P33261)?
stdout: 29

stdin: Same for COc1cccc(S(=O)(=O)/C=C/c2ccccc2Cl)n1
stdout: 7.7

stdin: Same for COc1cccnc1S(=O)(=O)/C=C/c1ccccc1F
stdout: 68.4

stdin: Same for COc1ccncc1S(=O)(=O)/C=C/c1ccccc1C(F)(F)F
stdout: 23.5

stdin: Same for COc1ccc([S+]([O-])/C=C/c2ccccc2C(F)(F)F)nc1 (centres undefined)
stdout: 2.5

stdin: Same for COc1ncccc1S(=O)(=O)/C=C/c1ncccc1Cl
stdout: 15

stdin: Same for COc1ccnc(S(=O)(=O)/C=C/c2ccc(Cl)nc2)c1
stdout: 17.9

stdin: Same for COc1ccnc(S(=O)(=O)/C=C/c2ccc(Cl)cc2)c1
stdout: 10.5

stdin: Same for COc1cccnc1S(=O)(=O)/C=C/c1ccccc1Cl
stdout: 60.7

stdin: Same for COc1ccnc(S(=O)(=O)/C=C/c2ccccc2Cl)c1
stdout: 11.1

stdin: Same for COc1ccnc(S(=O)(=O)/C=C/c2ccccc2C(F)(F)F)c1
stdout: 14.9

stdin: Same for COc1ccnc(S(=O)(=O)/C=C/c2cccc(Cl)c2)c1
stdout: 7

stdin: Same for COc1ncccc1S(=O)(=O)/C=C/c1ccccc1Cl
stdout: 7.1

stdin: Same for COc1cccc([S+]([O-])/C=C/c2ccccc2C(F)(F)F)n1 (centres undefined)
stdout: 5.5

stdin: Same for COc1ncccc1S(=O)(=O)/C=C/c1ccccc1C(F)(F)F
stdout: 16.2

stdin: Same for COc1ccc(S(=O)(=O)/C=C/c2ccccc2Cl)nc1
stdout: 5.4

###

- PROTOCOL: Metabolic stability of the compound in human plasma assessed as parent compound remaining measured after 30 mins
- Type: ADME, cell-free
- CONDITIONS: read-out: Stability
RESULT_TYPE: remaining at 0.5 h

Known remaining at 0.5 h results, listed for orientation:
# COMPOUND, RESULT
rows = [
    ("COc1ccnc(S(=O)(=O)/C=C/c2ccc(Cl)nc2)c1", "98.6%"),
    ("COc1cccnc1S(=O)(=O)/C=C/c1ncccc1C(F)(F)F", "94%"),
    ("COc1ccnc(S(=O)(=O)/C=C/c2ncccc2C(F)(F)F)c1", "90.9%"),
    ("COc1cccc(S(=O)(=O)/C=C/c2ncccc2Cl)n1", "> 99%"),
    ("COc1ccc(S(=O)(=O)/C=C/c2ccccc2Cl)nc1", "> 99%"),
    ("COc1ccnc(S(=O)(=O)/C=C/c2cccc(Cl)c2)c1", "> 99%"),
    ("COc1ccnc(S(=O)(=O)/C=C/c2ccc(Cl)cn2)c1", "91.1%"),
    ("COc1ccc(S(=O)(=O)/C=C/c2ncccc2C(F)(F)F)nc1", "96.2%"),
]

stdin: Returns the measured remaining at 0.5 h for the input compound. Input: COc1cccnc1[S+]([O-])/C=C/c1ccccc1C(F)(F)F (centres undefined)
stdout: > 99%

###

Catalogue of remaining at 0.5 h values
- PROTOCOL: Metabolic stability of the compound in rat plasma assessed as parent compound remaining measured after 30 mins
- Format: ADME, cell-free
- CONDITIONS: read-out: Stability
Response body: numeric value in %, unit text excluded.

# MOLECULE, remaining at 0.5 h, %
measured = [
    ("COc1ccnc(S(=O)(=O)/C=C/c2ccncc2Cl)c1", 43.4),
    ("COc1cccnc1S(=O)(=O)/C=C/c1ncccc1Cl", 74.4),
    ("COc1cccc(S(=O)(=O)/C=C/c2ncccc2C(F)(F)F)n1", 82.7),
    ("COc1cccnc1S(=O)(=O)/C=C/c1ccccc1C(F)(F)F", 93.5),
    ("COc1ncccc1S(=O)(=O)/C=C/c1ccccc1C(F)(F)F", 89.3),
    ("COc1ccnc(S(=O)(=O)/C=C/c2cccnc2Cl)c1", 91.9),
]

stdin: Returns the measured remaining at 0.5 h for the input molecule. Input: COc1cccc(S(=O)(=O)/C=C/c2ccccc2Cl)n1
stdout: 98.9

stdin: Same for COc1ccc([S+]([O-])/C=C/c2ccccc2C(F)(F)F)nc1 (centres undefined)
stdout: 89

###

- SUBJECT_OF_TEST: CYP2C19 (Homo sapiens)
- PROTOCOL: Inhibition of CYP2C19 (unknown origin) assessed as enzyme activity at 10 uM relative to control
- Type: ADME
- Design: scale not given: the % may be the effect or the level left
- CONDITIONS: read-out: Activity
RESULT_TYPE: activity at 10 µM (%)
Response body: numeric value in %, unit text excluded.

Known activity at 10 µM results, listed for orientation:
# COMPOUND_STRUCTURE, activity at 10 µM [%]
records = [
    ("COc1ccnc(S(=O)(=O)/C=C/c2ccc(Cl)cn2)c1", 10.7),
    ("COc1ccnc(S(=O)(=O)/C=C/c2ccnc(Cl)c2)c1", 24.3),
    ("COc1ccnc(S(=O)(=O)/C=C/c2ccncc2Cl)c1", 22.4),
    ("COc1cccnc1S(=O)(=O)/C=C/c1ncccc1C(F)(F)F", 60.5),
    ("COc1cccc(S(=O)(=O)/C=C/c2ncccc2C(F)(F)F)n1", 15.1),
]

Now for the molecule whose activity at 10 µM we want.
stdin: Returns the measured activity at 10 µM for the input molecule. Input: COc1ccnc(S(=O)(=O)/C=C/c2ncccc2Cl)c1
stdout: 27.6

###

Catalogue of activity at 10 µM values
- SUBJECT_OF_TEST: CYP1A2 (Homo sapiens, UniProt P05177)
- Sequence (P05177 whole entry): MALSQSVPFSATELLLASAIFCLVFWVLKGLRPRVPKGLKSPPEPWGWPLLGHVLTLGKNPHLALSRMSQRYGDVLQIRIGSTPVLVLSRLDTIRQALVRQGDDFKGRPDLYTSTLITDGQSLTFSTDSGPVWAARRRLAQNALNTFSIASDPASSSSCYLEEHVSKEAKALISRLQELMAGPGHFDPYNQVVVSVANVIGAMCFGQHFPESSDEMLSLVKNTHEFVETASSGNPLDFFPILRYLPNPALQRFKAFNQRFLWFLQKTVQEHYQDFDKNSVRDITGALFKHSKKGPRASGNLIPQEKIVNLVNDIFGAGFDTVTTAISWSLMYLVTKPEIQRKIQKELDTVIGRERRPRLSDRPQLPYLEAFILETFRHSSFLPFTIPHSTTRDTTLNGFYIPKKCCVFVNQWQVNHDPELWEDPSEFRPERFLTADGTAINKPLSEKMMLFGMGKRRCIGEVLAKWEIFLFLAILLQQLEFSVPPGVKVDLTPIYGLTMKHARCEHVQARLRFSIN
- PROTOCOL: Inhibition of CYP1A2 (unknown origin) assessed as enzyme activity at 10 uM relative to control
- Format: ADME
- Parameters: scale not given: the % may be the effect or the level left
- CONDITIONS: read-out: Activity
Response body: numeric value in %, unit text excluded.

Known activity at 10 µM results, listed for orientation:
# MOLECULE, NUMERIC_READOUT
data = [
    ("COc1ccnc(S(=O)(=O)/C=C/c2ccc(Cl)nc2)c1", 83),
    ("COc1cccnc1C(=O)/C=C/c1ccccc1C(F)(F)F", 3.7),
]

stdin: Returns the measured activity at 10 µM for the input molecule. Input: COc1ccc(S(=O)(=O)/C=C/c2ncccc2Cl)nc1
stdout: 74.2

stdin: Same for COc1cccc(S(=O)(=O)/C=C/c2ncccc2C(F)(F)F)n1
stdout: 18.2

stdin: Same for COc1cccc(S(=O)(=O)/C=C/c2ccccc2Cl)n1
stdout: 6.73

stdin: Same for COc1cccc([S+]([O-])/C=C/c2ccccc2C(F)(F)F)n1 (centres undefined)
stdout: 4.9

stdin: Same for COc1ccc(S(=O)(=O)/C=C/c2ncccc2C(F)(F)F)nc1
stdout: 61.1

###

- SUBJECT_OF_TEST: CYP2C9 (Homo sapiens, UniProt P11712)
- Sequence (P11712 whole entry): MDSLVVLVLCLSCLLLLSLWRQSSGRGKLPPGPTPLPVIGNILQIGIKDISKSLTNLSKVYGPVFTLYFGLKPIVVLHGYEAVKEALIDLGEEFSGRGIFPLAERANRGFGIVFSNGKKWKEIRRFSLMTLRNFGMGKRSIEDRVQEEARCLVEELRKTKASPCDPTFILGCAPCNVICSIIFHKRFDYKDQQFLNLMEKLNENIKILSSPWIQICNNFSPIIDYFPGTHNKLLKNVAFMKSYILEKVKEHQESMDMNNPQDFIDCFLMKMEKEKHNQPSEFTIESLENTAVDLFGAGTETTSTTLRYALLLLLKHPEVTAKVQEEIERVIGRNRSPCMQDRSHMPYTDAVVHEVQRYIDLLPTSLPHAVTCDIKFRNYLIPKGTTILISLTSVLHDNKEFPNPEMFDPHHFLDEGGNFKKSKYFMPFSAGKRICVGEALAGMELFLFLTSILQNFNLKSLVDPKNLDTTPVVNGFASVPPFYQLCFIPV
- PROTOCOL: Inhibition of CYP2C9 (unknown origin) assessed as enzyme activity at 10 uM relative to control
- Format: ADME
- Design: scale not given: the % may be the effect or the level left
- CONDITIONS: read-out: Activity
RESULT_TYPE: activity at 10 µM (%)
Response body: numeric value in %, unit text excluded.

# COMPOUND_STRUCTURE, SUBJECT_OF_TEST, UNIT_LABEL, NUMERIC_READOUT
records = [
    ("COc1cccnc1S(=O)(=O)/C=C/c1ccccc1C(F)(F)F", "CYP2C9 (Homo sapiens, UniProt P11712)", "%", 79.2),
    ("COc1ccnc(S(=O)(=O)/C=C/c2ccc(Cl)nc2)c1", "CYP2C9 (Homo sapiens, UniProt P11712)", "%", 91.7),
    ("COc1cccc(S(=O)(=O)/C=C/c2ncccc2C(F)(F)F)n1", "CYP2C9 (Homo sapiens, UniProt P11712)", "%", 81.9),
    ("COc1ccnc(S(=O)(=O)/C=C/c2ccccc2C(F)(F)F)c1", "CYP2C9 (Homo sapiens, UniProt P11712)", "%", 38.2),
]

stdin: Hi! What's the reported activity at 10 µM for COc1cccnc1S(=O)(=O)/C=C/c1ccccc1Cl on CYP2C9 (Homo sapiens, UniProt P11712)?
stdout: 59.7
